Data provenance is the supplement of paper PMC9170038.

# apparent KD of MS2 coat protein per entry
system: MS2 coat protein; assay: apparent KD of MS2 coat protein; designed switch direction (-1 OFF switch, 1 ON switch): -1; higher = weaker reporter binding; settings: input ligand: none
Your answer should be a number followed by the unit of measure.

For orientation, consider the following solved cases.
SEQUENCE_INPUT	apparent KD of MS2 coat protein
GCGUACUGAGGAUAUACAUGAGGAUCACCCAUGUGAAGAAGAAAGUAGUGAUGGUUAAGUAGAAGGCAGUAUGC [JR_Ex3_Sub063] (Eterna round: R97, puzzle: Exclusion 3)	113 nM
GCGUACUGAGGAUAUACAUGAGGAUCACCCAUGUAACACAGCAUAUGUGAAGUUUUUUGUAGAAGGCAGUAUGC [JR_Ex3_Sub056] (Eterna round: R97, puzzle: Exclusion 3)	28.7 nM

Record GCUGGUCGAGGAUAUACAUGAGGAUCACCCAUGUGAUUAGCAGUCCUCGGACUGCAAUGUAGAAGGUGACCAGC [E3/2-B1] (Eterna round: R97, puzzle: Exclusion 3) . Reported apparent KD of MS2 coat protein: 198 nM

---

test system: MS2 coat protein; assay: apparent KD of MS2 coat protein; designed switch direction (-1 OFF switch, 1 ON switch): -1; higher = weaker reporter binding; settings: input ligand: none
READOUT_KIND: apparent KD of MS2 coat protein (nM)
# output: bare number, implied unit nM

SEQUENCE_INPUT	apparent KD of MS2 coat protein [nM]
CUGUGAUGAGGAUAUACAUGAGGAUCACCCAUGUGUCCUCUGAUGGGUAGGGACCCUGGUAGAAGGCAUUGAGA [Eternabot (L1) Solution 52] (Eterna round: R97, puzzle: Exclusion 3)	15.5
CAUUAUGUUGAGGAUAUGCACCAGCUCACUGACGCAGAAGGCGACACAUGAGGAUCACCCAUGUCAGUUCGCGU [salish99_ex6_r004_429] (Eterna round: R97, puzzle: Exclusion 6)	17
AACCAGCGAGGAUAUGCUUGAGCUUGUUCUGGUUAUAAUCGACUUGAGGAUCACCCAAGUAGAAGGUGCUGACG [EX2 #58] (Eterna round: R97, puzzle: Exclusion 2)	26.9
AUUAUGUUAGGAUAUGCUUAUGGUGGAUAAUCGGAUAUGAUGCAGAAGGGACAUGAGGAUCACCCAUGUACUGA [EX4 #24] (Eterna round: R97, puzzle: Exclusion 4)	22.7
CGUCUGUAAGGAUAUGGUAGCGUUUACAUGAGGAUCACCCAUGUUACAUGGGACUAGAGACUAGAAGGUACGAACG [EX5 #51] (Eterna round: R97, puzzle: Exclusion 5)	2520
GUGAAUGCAAGCUUUAAAUACAUGAGGAUCACCCAUGUAAACGCUAACCGCGAUAAUUACUGGGUACCUCCCGUCUU [Eternabot (L2) Solution 44] (Eterna round: R97, puzzle: Sensor, turn-off variant 1)	24.9

apparent KD of MS2 coat protein on MS2 coat protein for CUAAUACAUCAGGAUAUGUGUCAUUAUAGCGACACAGAAGGGAUGACAUGAGGAUCACCCAUGUCAAAGGGUGA [eternacac ex6r4 sub22] (Eterna round: R97, puzzle: Exclusion 6) is 639

apparent KD of MS2 coat protein on MS2 coat protein for AUCAGCUCGUGAGGAUAUACAUGCGUGCUUCGGCACGAAUUUAAGAUCACAUGAGGAUCACCCAUGUAGAAGGCACGAGCUGAU [ENG2/3-A3] (Eterna round: R96, puzzle: Exclusion NG 2) is 520

apparent KD of MS2 coat protein on MS2 coat protein for CCGGUGUGAGGAUAUCGUGGCUUGCAGGAAACGCUAAGUCGCGAGAAGGCACAUGAGGAUCACCCAUGUGUAUC [Eternabot (L2) Solution 54] (Eterna round: R97, puzzle: Exclusion 4) is 24.7

apparent KD of MS2 coat protein on MS2 coat protein for UGUUGUUACGCAGGAUAUGGCCAACAGGCCCUAGGAUAUCCGAAAGGAGAAGGAGCGCCAACAGGCGAGAAGGGCGGGUUAACA [pwkr exNG2 2xF7 2xFMN.14] (Eterna round: R96, puzzle: Exclusion NG 2) is 140

---

test system: MS2 coat protein; test: apparent KD of MS2 coat protein; higher = weaker reporter binding; settings: Eterna round: R107; input ligand: arginine 13.2 mM
READOUT_KIND: apparent KD of MS2 coat protein (nM)
# output: bare number, implied unit nM

>>> print(df.to_string())
                             sequence_input   val
0  GCAAUAACGAUUGAUACCAGCAUGUUAACAUGAGGAUCACCCAUGUUAAGGAUAACAUAAUGCCCUUGGCAGCAACGGAAAGCCG [Ac]  16.8
1  ACAUGAGGAUCACCCAUGUUCCUCAUUGAUACCAGUGAAUUUAGACGCCCUUGGCAGCGAGUUUUUUUAUAAGUUUUUUUUUUUU [6.J]   276
2  AUUUUCGUAGGUUAAAGUUUAGAAACUGAAGGAGCGUGGUAUUACACAGGUAGGUCGCAGAUUUUACAUGAGGAUCACCCAUGUU [JR_ExcArginiA_Sub011]  14.9
3  GUUGGAUACUCGGCCGCCACUGAGAGAGUCAUGUGAACAUGAGGAUCACCCAUGUAAUAUAUAUACAGGACCGGGAGUGUUGUAA [4.I]  20.3
4  GGGCCUGUAAGCAGACCCACAGCGGGUGAUACCAGCAAUAAAACUUGCCCUUGGCAGCACACAGCUACAUGAGGAUCACCCAUGU [Rausis]  36.4

Now for another entry.
Record UCGACAGUGAACGAUACCAGCGUCACGUGGCCGGUGGUCACAUGAGGAUCACCCAUGUAACGCCCUUGGCAGCGUGCACGUAUCA [Latedirius] . Reported apparent KD of MS2 coat protein: 20.5

---

# apparent KD of MS2 coat protein per entry
tested on: MS2 coat protein; test: apparent KD of MS2 coat protein; designed switch direction (-1 OFF switch, 1 ON switch): 1; higher = weaker reporter binding; conditions: input ligand: FMN 200 uM
# output: bare number, implied unit µM

apparent KD of MS2 coat protein on MS2 coat protein for UUGAAGAAUUAAGGAUAUUGAGUACAUAUGUUUAACAUGAGGAUCACCCAUGUGGGUUGCGGUAUCGAGAAGGUAAAUUACAAG [JL SSNG2 1.44] (Eterna round: R96, puzzle: Same State NG 2) is 0.105

apparent KD of MS2 coat protein on MS2 coat protein for AAAAUGGUAUGUUACAUGAGGAUCACCCAUGUACUCUCCUCUGAGGAUAUGGGAAUGUUGAAAAACCAGAAGGCAGACAUCCAA [AK SSNG3-V2-22] (Eterna round: R96, puzzle: Same State NG 3) is 0.139

apparent KD of MS2 coat protein on MS2 coat protein for GCGGAGAGGUAAGGAUAUCCAUGGCAUAGACAUGAGGAUCACCCAUGUAGGAGACGAAUUAGGAGGGAGAAGGUACCGGGACGC [AK SSNG2-V2-19.1] (Eterna round: R96, puzzle: Same State NG 2) is 0.12

---

# apparent KD of MS2 coat protein per entry
system: MS2 coat protein; assay: apparent KD of MS2 coat protein; designed switch direction (-1 OFF switch, 1 ON switch): -1; higher = weaker reporter binding; details: Eterna round: R95; input ligand: microRNA oligo, concentration not stated
# output: bare number, implied unit nM

SEQUENCE_INPUT	apparent KD of MS2 coat protein [nM]
CUGGACCGAGGAUAUAUUAUGUGAAACAUGAGGAUCACCCAUGUAAUAUGAUGGAUGUAAAUAGAAGGCGGUCUAG [Mat - Exclusion 5 - JL mod - D28] (puzzle: Exclusion 5)	35.1
AAGAAACGAGGAUAUACAGUUGAGUGAGAGAGGGUAGUGUUACAUGAGGAUCACCCAUGUAGAAGGCGUGAGAG [JR_Exclu2_Sub089] (puzzle: Exclusion 2)	31.5

Now for another entry.
Record CCUCCACAUGAGGAUCACCCAUGUCAGGAUAUCGUGUGUGCUUUUUCGGUCUUUCGUGCGAGAAGGGACGUCUG (puzzle: Exclusion 1) . Reported apparent KD of MS2 coat protein: 25.5

---

system: K4 kissing-loop RNA reporter; experiment: apparent KD of K4 kissing-loop reporter; higher = weaker reporter binding; settings: Eterna round: R107; input ligand: theophylline 20 uM;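 further: bound reporter read as fluorescence of individual clusters on recovered sequencing chips by microscopy, with normalized cluster intensities fitted with a binding model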
Everything with apparent KD of K4 kissing-loop reporter lower than 100 nM is FALSE; everything else, including exactly 100 nM, is TRUE.

SEQUENCE_INPUT	CLASS_LABEL
GCCGUAGAUUGAAGGAGCGGUUCAUCAAUUCAAGUCGAGUGAUGUUCGACGAUUCUCAGUAACCAGGUAGGUCGCAAUCUACGGC	TRUE
UAGAAGAGAAGCGAUACCAGCGAAUGAAGAAGAUGAUGAAGCCAGUGAUGUUGGAAAGAACGCCCUUGGCAGCGCAAGAGAAGAU	TRUE
AAGUGAUGUUGUAGUGAUGUUGUGAUGUUGCAGGAUAUAUAGUGAUGUAGAAGGGUAUGUACAGUUUUUUUUUUUGAGUGAUGAU [vvcvmullin]	FALSE
CUUGGAAGGACGGCCGCCACUGGGCAGUGAUGUUGCCCGAGUUGGUAACGCAGUGAUGUUGCGUCCAGGACCGGGUCCUAGGAAU [Exclusion Tryptophan B GF 25]	TRUE

Could you now look at the following sequence, please?
Prompt line: Determine whether this sequence has apparent KD of K4 kissing-loop reporter no lower than 100 nM: ACGGUUUCCACGGCCGCCACUUGCGCAUUAGAUCUUACCCUAGGAGUGAUGUUCCAUACAAGUACAAGGACCGGGUGGGACAUAA [theeternabot_sameState_KL_Trp_B_28]
Response line: TRUE
